# Assay Comment: chemical genetic growth profiling, strain panel (AID 1159580);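 further: tested at 20 µM; growth read once vehicle control cultures reached saturation at 30 °C; 1 = growth at the plate median or of vehicle wells; lower values mean less growth of the strain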
# Experimental Context: S. cerevisiae deletion strains, growth OD, locus YLR039C, strain RIC1
Hit rate of the full screen: of about 5,500 compounds, about 2,000 (36%) were called active. Another 18% or so got no clear call; they are omitted. No stated cut-off is given here; in the data, active means normalized growth mostly below about 0.91 (no sharp cut-off); inconclusive means no clear call, values can overlap the other calls; inactive means mostly above about 0.92. The list shows a part of the results.
Possible outcomes: active, inactive

1) O=c1c(O)c(-c2ccccc2)oc2cc(O)ccc12 ... active
2) Cc1c(NC(C)C)c(=O)n(-c2ccccc2)n1C ... inactive
3) O=C(O)CCC(=O)OC[C@@H](NC(=O)C(Cl)Cl)[C@H](O)c1ccc([N+](=O)[O-])cc1 ... inactive
4) Cc1cc(S(=O)(=O)NCCNc2nccc(C(F)(F)F)n2)c(C)cc1Cl ... inactive
5) O=C(NNC(=O)c1ccc[nH]1)Nc1cc(Cl)cc(Cl)c1 ... inactive
6) O=C1C(=O)c2ccccc2C(O)=C1C1CCC(c2ccc(Cl)cc2)CC1 (centres undefined) ... inactive
7) N#CCC(=O)N(Cc1ccccc1F)C(=O)NC1CCCCC1 ... inactive
8) O=[N+]([O-])c1cc(C(F)(F)F)ccc1Oc1cc(C(F)(F)F)cc(C(F)(F)F)c1 ... inactive
9) O=C(CNc1cccc(Cl)c1)c1ccc(Cl)cc1 ... inactive
10) COc1cc2cccc(OC)c(=O)c2c(OC)c1OC ... inactive
11) CC(C)Cn1c(=O)n(C)c(=O)c2[nH]cnc21 ... inactive
12) Cc1noc(C)c1C(=O)N1CCOCC1 ... inactive
13) NC(=O)C1=C(O)C(=O)N(C2CCCCC2)C1 ... inactive
14) CN1CCCCC1c1ccc(-c2cccnc2)nc1 (centres undefined) ... inactive
15) O=c1c(O)c(-c2ccccc2)oc2ccc3occc3c12 ... inactive
16) CN1CCC[C@H]1c1cccnc1 ... inactive
17) NC(=NCCCCCCN=C(N)N=C(N)Nc1ccc(Cl)cc1)N=C(N)Nc1ccc(Cl)cc1 ... active
18) O=C1NS(=O)(=O)c2ccccc21 ... inactive
19) COc1ccccc1NC(=S)NCCc1ccc(OC)c(OC)c1 ... inactive
20) COc1c([N+](=O)[O-])cc(C(F)(F)F)cc1[N+](=O)[O-] ... active
21) Cc1cc(O)c2c(c1)C(=O)c1cccc(O)c1C2=O ... inactive
22) O=C1C=CC(=O)c2c(O)cccc21 ... inactive
23) COC(=O)C(O)[C@H]1C(C)(C)[C@@H](OC(C)=O)[C@@H]2CC3=C4CC(=O)O[C@@H](c5ccoc5)[C@]4(C)CCC3[C@@]1(C)C2=O (some centres undefined) ... inactive
24) NS(=O)(=O)c1cc2c(cc1Cl)NCNS2(=O)=O ... inactive
25) O=C1CSC(c2cccnc2)N1c1ccc(Cl)cc1 (centres undefined) ... active
26) O=C1CSC(c2cccnc2)N1c1ccc(C2CCCCC2)cc1 (centres undefined) ... inactive
27) N=C(N)SCc1c(F)cccc1Cl ... inactive
28) Cc1cc(S(=O)(=O)NC(Cc2ccc([N+](=O)[O-])cc2)C(=O)O)c(Cl)cc1Cl (centres undefined) ... inactive
29) O=C(N[C@@H](CO)[C@H](O)c1ccc([N+](=O)[O-])cc1)C(Cl)Cl ... inactive

---

# Assay Comment: chemical genetic growth profiling, strain panel (AID 1159580);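 further: tested at 20 µM; growth read once vehicle control cultures reached saturation at 30 °C; 1 = growth at the plate median or of vehicle wells; lower values mean less growth of the strain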
# Experimental Context: S. cerevisiae deletion strains, growth OD, locus YOR083W, strain WHI5 (second series), active compounds read low
The campaign covered roughly 5,500 compounds. About 2,000 (36%) were called active. Roughly 18% stayed inconclusive and do not appear here. Some of the results follow.
Listing of recorded normalized growth by entry.
Property Name: normalized growth

1) O=Nc1c(-c2c(O)[nH]c3ccccc23)[nH]c2ccccc12 ... 0.46
2) CC(C)Cn1c(=O)n(C)c(=O)c2[nH]cnc21 ... 0.998
3) Oc1ccccc1O ... 1.03
4) CC(C)NP(=O)(NC(C)C)OP(=O)(NC(C)C)NC(C)C ... 0.991
5) NS(=O)(=O)c1cc2c(cc1Cl)NCNS2(=O)=O ... 0.981
6) Cn1cc(C(=O)OCC2CCN(CCNS(C)(=O)=O)CC2)c2ccccc21 ... 1.03
7) CN1C(=O)CCC1c1cccnc1 (stereo not given) ... 1.02
8) O=C(O)c1cc(=O)cc(C(=O)O)[nH]1 ... 1.02
9) CNCCC(Oc1ccccc1OC)c1ccccc1 (stereo not given) ... 1.03
10) CC(C)NC(C)Cc1ccc(I)cc1 (stereo not given) ... 0.998
11) COc1cc2ncnc(Nc3cccc(Cl)c3)c2cc1OC ... 0.89
12) O=c1cc(-c2ccccc2)[nH]c2nc(Cl)ccc12 ... 0.989
13) CC(C)[C@@H](CO)Nc1nc(Nc2cccc(Cl)c2)c2ncn(C(C)C)c2n1 ... 0.913
14) CN(C)c1cc2c(Nc3ccc4c(cnn4Cc4ccccc4)c3)ncnc2cn1 ... 0.954
15) O=C(O)c1cc(=O)c2ccccc2[nH]1 ... 1.02
16) COC(=O)c1c(-c2cc(OC)c(OC)c(OC)c2)c2ccnc(OCc3ncccn3)c2c(=O)n1Cc1ccnc(C)c1 ... 0.999
17) O=C(/C=C/c1ccc(O)cc1)c1ccc(O)cc1O ... 0.982
18) Cn1c(=O)c2c(ncn2C)n(C)c1=O ... 1.02
19) NC(N)=NCc1cccc(I)c1 ... 0.99
20) O=C(c1ccccc1)c1ccc2n1CCC2C(=O)O (stereo not given) ... 1.03
21) CCCn1cnc2c1c(=O)n(CCCCC(C)=O)c(=O)n2C ... 1.01
22) COC(=O)[C@H](NC(=O)c1cc(-c2ccccc2)nc2ccccc12)c1ccccc1 ... 1.06
23) Cn1c(=O)[nH]c2ncn(C)c2c1=O ... 1.02
24) O=C(Nc1ccc([N+](=O)[O-])cc1Cl)c1cc(Cl)ccc1O ... 0.751
25) CC(C)(C)c1ccc(S(=O)(=O)/C=C/C#N)cc1 ... 0.0681
26) O=c1[nH]ccc2c(O)cccc12 ... 1.06
27) CC(=O)CCCCn1c(=O)c2c(ncn2C)n(C)c1=O ... 1.05
28) Cc1ccc2c(c1)C(N1CCN(C)CC1)=Nc1cccnc1N2 ... 0.991
29) Cn1cnc2c1c(=O)[nH]c(=O)n2C ... 1
30) CCn1c(=O)[nH]c2cc(Cl)c(Cl)cc21 ... 1.04

---

# Assay Comment: chemical genetic growth profiling, strain panel (AID 1159580);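 further: tested at 20 µM; growth read once vehicle control cultures reached saturation at 30 °C; 1 = growth at the plate median or of vehicle wells; lower values mean less growth of the strain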
# Experimental Context: S. cerevisiae deletion strains, growth OD, locus YJL129C, strain trk1, active compounds read low
In all, about 5,500 compounds went through this assay and about 2,000 (36%) were called active. Inconclusive results (about 18%) are left out. Some of the results follow.
Property Name: normalized growth

1) NNCc1ccccc1 ... 0.978
2) CNC(=O)Oc1ccccc1OC(C)C ... 0.986
3) CCC1(C2=NCCN2)Cc2ccccc2O1 (configuration not stated) ... 0.996
4) CC(C)[C@@H]1CC[C@@H](C)C[C@H]1OC(=O)c1ccccc1 ... 0.994
5) O=C1C=CC(=O)c2c(O)cccc21 ... 1.02
6) Cc1cc(O)c2c(c1)C(=O)c1cccc(O)c1C2=O ... 1.01
7) CC(C)=CCC/C(C)=C/CO ... 0.981

---

# Assay Comment: chemical genetic growth profiling, strain panel (AID 1159580);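 further: tested at 20 µM; growth read once vehicle control cultures reached saturation at 30 °C; 1 = growth at the plate median or of vehicle wells; lower values mean less growth of the strain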
# Experimental Context: S. cerevisiae deletion strains, growth OD, locus YJL154C, strain vps35
Screen size: about 5,500 compounds; about 2,000 (36%) were called active. Not shown: some 18% with an inconclusive outcome. No stated cut-off is given here; in the data, active means normalized growth mostly below about 0.91 (no sharp cut-off); inconclusive means no clear call, values can overlap the other calls; inactive means mostly above about 0.92. The list shows a part of the results.
Possible outcomes: active, inactive

1. O=C1c2cccc(O)c2C(=O)c2c(O)cccc21 ... inactive
2. CNC(=O)Oc1ccccc1OC(C)C ... inactive
3. COc1cc([C@@H]2c3cc4c(cc3[C@H](O)[C@H]3COC(=O)[C@H]23)OCO4)cc(OC)c1OC ... inactive
4. NC(=NCCCCCCN=C(N)N=C(N)Nc1ccc(Cl)cc1)N=C(N)Nc1ccc(Cl)cc1 ... active
5. CC(=O)O[C@H]1CC2CCC3C(CC[C@@]4(C)C3C[C@H]([N+]3(C)CCCCC3)[C@@H]4OC(C)=O)[C@@]2(C)C[C@@H]1N1CCCCC1 (stereo not given in full) ... inactive
6. COc1ccc(NS(=O)(=O)c2ccc(N)cc2)nn1 ... inactive
7. CCCc1ncc(C[n+]2ccccc2C)c(N)n1 ... inactive
8. COc1ccccc1OCC(O)COC(N)=O (stereo not given) ... inactive
9. O=c1c(O)c(-c2ccccc2)oc2ccc3occc3c12 ... inactive
10. CO/N=C(/C(=O)NC1C(=O)N2C(C(=O)OCOC(=O)C(C)(C)C)=C(/C=C\c3scnc3C)CSC12)c1csc(N)n1 (stereo not given) ... inactive
11. CC1=C(C(=O)O)N2C(=O)[C@@H](NC(=O)[C@@H](N)c3ccc(O)cc3)[C@H]2SC1 ... inactive
12. CCCCCC/C=C\CCCCCCCc1cccc(O)c1C(=O)O ... inactive
13. CC(C)=CCC/C(C)=C/CO ... inactive
14. C/C(=C\CO)CC[C@H](C)CCC[C@H](C)CCCC(C)C ... active
15. CC(NC(C)(C)C)C(=O)c1cccc(Cl)c1 (stereo not given) ... inactive
